Test system: Wild type
Assay: S. aureus survival, RN4220 and DeltatarO strains – OD600, teichoic acid synthesis inhibitors, primary screen (AID 463173)
Details: S. aureus RN4220 wild type/DeltatarO growth, OD600, 18 h, hits give low values, screened at 18.75 µg/mL (by protocol)
Out of some 52,000 compounds screened, about 1,700 (3.3%) were called active. The entries come from a sample that favours actives as a whole.
measured_property: survival (%)
Give bare numbers, in %.

> print(dat)
                                   compound  units  observed.result
1  CCOC(=O)c1c(Nc2cccc(C)c2)nnc(-c2ccccc2)c1-c1ccccc1      %                0
2     CCc1nn2c(=O)cc(COC(=O)Cc3ccccc3)nc2s1      %               59
3  CCOC(=O)c1c(Nc2ccc(C)cc2)nnc(-c2ccccc2)c1-c1ccccc1      %                2
4  CCOC(=O)c1c(C)oc2nc(C)nc(Nc3ccc(C)c(Cl)c3)c12      %               80
5   CCOC(=O)c1cnc(-c2ccccc2)nc1Nc1ccc(C)cc1      %              111
6  Cc1ccc(CCNC(=O)C2CCCN(Cc3nc(-c4cccc(Cl)c4)oc3C)C2)cc1 (stereo unspecified)      %                9

The following compounds each have a reported value; give each one's survival.
1. CCC(C(=O)OCc1cc(=O)n2nc(CCOC)sc2n1)c1ccccc1 (stereo unspecified)
2. Cc1oc(-c2cccc(Cl)c2)nc1CN1CCC(C(=O)NCCc2ccc(Cl)cc2)CC1
3. CCOC(=O)c1c(Nc2ccc(C)c(C)c2)nnc(-c2ccccc2)c1-c1ccccc1
4. CCOC(=O)c1nc(Nc2ccc(OC)cc2)c2ccccc2n1

-- reply
1. 136
2. 88
3. 0
4. 143

The following compounds each have a reported value; give each one's survival.
1. CCc1nn2c(=O)cc(COC(=O)C(CC)c3ccccc3)nc2s1 (stereo unspecified)
2. CCOC(=O)c1c(Nc2ccc(F)cc2)nnc(-c2ccccc2)c1-c1ccccc1
3. CCOC(=O)c1c(Nc2cc(C)cc(C)c2)nnc(-c2ccccc2)c1-c1ccccc1
4. CCOC(=O)c1c(Oc2ccc(C(C)=O)cc2)nnc(-c2ccccc2)c1-c1ccccc1
5. CCOCCc1nn2c(=O)cc(COC(=O)C(CC)c3ccccc3)nc2s1 (stereo unspecified)
6. Cc1cccc(-c2nc(CN3CCCC(C(=O)NCCc4ccc(Cl)cc4)C3)c(C)o2)c1 (stereo unspecified)

-- reply
1. 73
2. 1
3. 38
4. 92
5. 14
6. 29

The following compounds each have a reported value; give each one's survival.
1. CCOC(=O)c1c(C)oc2nc(C)nc(Nc3ccc(CC)cc3)c12
2. CCOC(=O)c1cccc(Nc2cc(-c3ccccc3)ncn2)c1
3. COc1ccc(/C=C/C(=O)Nc2ccc3nc4c(c(Nc5ccccc5OC)c3c2)CCCC4)cc1
4. CC(C)COc1ccc(C(=O)N2CCC(c3nc4ccccc4s3)CC2)cc1
5. Cc1oc(-c2ccc(Cl)cc2)nc1CN1CCCC(C(=O)NCCc2ccccc2)C1 (stereo unspecified)

-- reply
1: 115; 2: 40; 3: 93; 4: 42; 5: 29
